Conditions: [M+Na]+; instrument: TW; calibrated with phosphatidylcholines (ESI+) and phosphatidylethanolamines (ESI-)
assay.endpoint: collision cross section (N2) (Å²)

input_smiles=CCCC/C=C\CCCCCCCC(=O)OC[C@H](COP(=O)(O)OC[C@@H](O)CO)OC(=O)CCCCCCC/C=C\CCCCCCCC unit=Å² measurement=269.8
input_smiles=CC/C=C\C/C=C\C/C=C\C/C=C\CCCCC(=O)OC[C@H](COP(=O)(O)OC[C@@H](O)CO)OC(=O)CCCCCCCCC/C=C\CCCCCCCC unit=Å² measurement=285.9
input_smiles=CCCC/C=C\CCCCCCCC(=O)OC[C@H](COP(=O)(O)OC[C@@H](O)CO)OC(=O)CCCCCCCCC/C=C\C/C=C\CCCCC unit=Å² measurement=275.1
input_smiles=CC/C=C\C/C=C\C/C=C\C/C=C\CCCCC(=O)O[C@H](CO/C=C\CCCCCCCCCCCCCCCC)COP(=O)(O)OCCN unit=Å² measurement=275.5
